# TARGET_OF_ASSAY: Oxysterols receptor LXR-beta (Homo sapiens);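 further: Cell-based luminescence dose-response assay of agonist activity at LXR, run as a confirmatory counterscreen to a daf-12 agonist screen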;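 further: HEK293 cells with Gal4-LXR fusion and GAL4-driven luciferase reporter; agonist potency from rising luciferase signal of a Gal4-LXR reporter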
# Sequence (P55055 whole entry, the tested form may be a part): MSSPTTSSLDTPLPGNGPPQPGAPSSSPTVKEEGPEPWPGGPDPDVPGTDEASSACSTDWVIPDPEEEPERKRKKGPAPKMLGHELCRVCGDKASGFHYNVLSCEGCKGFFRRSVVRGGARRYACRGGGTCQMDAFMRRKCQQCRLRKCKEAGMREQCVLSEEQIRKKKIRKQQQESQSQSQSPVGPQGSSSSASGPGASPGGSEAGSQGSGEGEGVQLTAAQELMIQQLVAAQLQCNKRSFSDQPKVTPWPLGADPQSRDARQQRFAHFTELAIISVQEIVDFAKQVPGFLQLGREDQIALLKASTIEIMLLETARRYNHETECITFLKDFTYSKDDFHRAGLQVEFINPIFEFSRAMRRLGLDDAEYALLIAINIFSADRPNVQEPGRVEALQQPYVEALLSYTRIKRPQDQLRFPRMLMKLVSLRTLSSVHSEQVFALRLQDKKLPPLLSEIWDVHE
# Type: functional, cell-based
The source made the active and inactive calls.

{"columns": ["MOLECULAR_STRING", "EC50"],
 "data": [
  ["Cc1ccc(C)c(NC(=O)c2ccc3ccccc3n2)c1", "> 67.5 µM (inactive)"],
  ["O=C(/C=C/Nc1ccc(F)cc1)c1cccs1", "> 67.6 µM (inactive)"],
  ["Cc1cc(C)c2c(N)c(C(=O)Nc3nccs3)sc2n1", "> 67.5 µM (inactive)"],
  ["CCOC(=O)c1c(C)nc(-c2ccccc2)nc1N", "> 67.5 µM (inactive)"]
]}

###

# TARGET_OF_ASSAY: Orexin receptor type 2 (Homo sapiens)
# Sequence (O43614 whole entry): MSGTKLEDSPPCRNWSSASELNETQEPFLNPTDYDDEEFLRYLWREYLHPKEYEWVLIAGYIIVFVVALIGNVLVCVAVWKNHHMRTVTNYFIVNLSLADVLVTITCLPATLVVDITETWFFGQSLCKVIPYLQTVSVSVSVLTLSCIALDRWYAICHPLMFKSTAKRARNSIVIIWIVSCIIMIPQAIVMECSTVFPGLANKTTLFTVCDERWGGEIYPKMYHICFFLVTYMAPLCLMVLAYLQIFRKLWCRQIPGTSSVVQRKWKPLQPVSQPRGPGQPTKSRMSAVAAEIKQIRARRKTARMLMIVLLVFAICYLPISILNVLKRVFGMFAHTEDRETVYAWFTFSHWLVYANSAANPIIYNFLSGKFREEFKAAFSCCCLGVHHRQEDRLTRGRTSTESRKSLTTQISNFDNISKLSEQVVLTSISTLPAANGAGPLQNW
# TEST_DESCRIPTION: Counterscreen assay for antagonists of the orexin 1 receptor (OX1R; HCRTR1): Homogeneous Time Resolved Fluorescence (HTRF)-based cell-based dose response assay for antagonists of the orexin 2 receptor (OX2R; HCRTR2), run by assay provider.
# Format: functional
Active and inactive are the calls of the source.
Outcomes: 1.0 for active, 0.0 for inactive

{"columns": ["MOLECULAR_STRING", "GROUP_LABEL"],
 "data": [
  ["CCc1c(C)sc(N=C(S)Nc2nc(C)cc(C)n2)c1C(=O)OC", 0.0],
  ["CSc1nc2ccc3nc(NC(=O)c4cccs4)sc3c2s1", 0.0],
  ["CCn1c(SCC(=O)Nc2ccc3c(c2)c2ccccc2n3CC)nnc1-c1cnccn1", 0.0],
  ["N#CC(=C1SC=CS1)c1nc(-c2ccccc2)cs1", 1.0]
]}

###

We begin with a simple list: items and their reported EC50.
# TEST_DESCRIPTION: NIH3T3 cell viability loss – ATP luminescence, mouse fibroblasts, counter-screen, dose response (AID 2010);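 further: cells exposed to compound for about 90 hours before reading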
# Type: functional, cell-based
The source made the active and inactive calls.
QUANTITY_MEASURED: EC50

{"columns": ["COMPOUND", "RESULT"],
 "data": [
  ["COc1ccc(/C=C/C(=O)NC(=S)NNC(=O)c2cnccn2)cc1", "15.2 µM (active)"],
  ["CC(C)NCC(O)COC1C2CC3CC(C2)CC1C3 (configuration not stated)", "> 60 µM (not active)"],
  ["CCOc1ccc(NC(=O)C(C)Oc2ccccc2C(=O)Nc2ccc(C)c(Cl)c2)cc1 (configuration not stated)", "> 60 µM (not active)"],
  ["CC1=C(C(=O)Nc2ccc([N+](=O)[O-])cc2)C(c2cccc(C(F)(F)F)c2)N=C(S)N1c1ccccc1 (configuration not stated)", "> 60 µM (inconclusive)"],
  ["CCc1sc(C(=O)NC2CCN(C)CC2)cc1Br", "> 60 µM (not active)"],
  ["COc1ccc(C(c2nnnn2Cc2ccccc2)N2CCN(c3nc4ccccc4s3)CC2)cc1 (configuration not stated)", "8.63 µM (active)"],
  ["Cc1ccc(Cl)cc1N1CCN(C(=O)c2ccc(CN3CCOCC3)cc2)CC1", "4.63 µM (active)"]
]}

###

We begin with a simple list: items and their reported IC50.
# TARGET_OF_ASSAY: Disintegrin and metalloproteinase domain-containing protein 17 (Homo sapiens, UniProt P78536)
# Sequence (P78536 whole entry, the tested form may be a part): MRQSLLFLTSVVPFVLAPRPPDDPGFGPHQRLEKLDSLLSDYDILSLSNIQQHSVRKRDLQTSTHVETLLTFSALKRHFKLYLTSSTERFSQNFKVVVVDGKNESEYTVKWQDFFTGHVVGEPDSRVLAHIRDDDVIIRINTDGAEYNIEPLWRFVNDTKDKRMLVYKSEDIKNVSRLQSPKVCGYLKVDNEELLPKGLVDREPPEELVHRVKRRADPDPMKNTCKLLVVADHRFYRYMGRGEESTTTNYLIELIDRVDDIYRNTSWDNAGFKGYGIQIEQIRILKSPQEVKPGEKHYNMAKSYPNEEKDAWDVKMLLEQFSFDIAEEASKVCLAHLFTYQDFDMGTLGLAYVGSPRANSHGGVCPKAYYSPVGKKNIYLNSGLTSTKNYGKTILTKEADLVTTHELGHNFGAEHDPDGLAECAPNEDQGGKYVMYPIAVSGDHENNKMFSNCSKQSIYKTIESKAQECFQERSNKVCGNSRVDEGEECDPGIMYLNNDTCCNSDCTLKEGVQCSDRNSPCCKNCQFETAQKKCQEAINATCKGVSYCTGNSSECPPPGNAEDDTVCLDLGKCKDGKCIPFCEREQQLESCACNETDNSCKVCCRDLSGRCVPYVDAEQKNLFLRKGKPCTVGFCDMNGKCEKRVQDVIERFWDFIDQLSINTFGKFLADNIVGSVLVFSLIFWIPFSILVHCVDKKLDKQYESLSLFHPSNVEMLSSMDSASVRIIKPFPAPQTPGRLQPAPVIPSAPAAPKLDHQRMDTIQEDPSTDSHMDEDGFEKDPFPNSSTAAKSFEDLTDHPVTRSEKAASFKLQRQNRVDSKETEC
# TEST_DESCRIPTION: exosite inhibitors of ADAM17, dose response, biochemical (AID 743260)
Activity calls are given as the source filed them.
QUANTITY_MEASURED: IC50

{"columns": ["MOLECULAR_STRING", "QUANTITY_MEASURED", "RESULT"],
 "data": [
  ["NS(=O)(=O)c1ccc(N/N=C/C=C/c2ccccc2[N+](=O)[O-])cc1", "IC50", "> 69.5 µM (inactive)"],
  ["O=C(NO)c1ccc(OC(F)F)cc1", "IC50", "29.5 µM (inactive)"],
  ["Sc1nnc(C2CCCCC2)n1/N=C/C=C/c1ccccc1", "IC50", "> 69.5 µM (inactive)"],
  ["CCCCC[C@@H](C)N1C[C@@H](COCc2ccccc2)Oc2cc(N3CCC[C@H]3CO)ccc2S1(=O)=O", "IC50", "> 69.5 µM (inactive)"]
]}

###

# TARGET_OF_ASSAY: Cytochrome P450 2C19 (Homo sapiens, UniProt P33261)
# Sequence (P33261 whole entry): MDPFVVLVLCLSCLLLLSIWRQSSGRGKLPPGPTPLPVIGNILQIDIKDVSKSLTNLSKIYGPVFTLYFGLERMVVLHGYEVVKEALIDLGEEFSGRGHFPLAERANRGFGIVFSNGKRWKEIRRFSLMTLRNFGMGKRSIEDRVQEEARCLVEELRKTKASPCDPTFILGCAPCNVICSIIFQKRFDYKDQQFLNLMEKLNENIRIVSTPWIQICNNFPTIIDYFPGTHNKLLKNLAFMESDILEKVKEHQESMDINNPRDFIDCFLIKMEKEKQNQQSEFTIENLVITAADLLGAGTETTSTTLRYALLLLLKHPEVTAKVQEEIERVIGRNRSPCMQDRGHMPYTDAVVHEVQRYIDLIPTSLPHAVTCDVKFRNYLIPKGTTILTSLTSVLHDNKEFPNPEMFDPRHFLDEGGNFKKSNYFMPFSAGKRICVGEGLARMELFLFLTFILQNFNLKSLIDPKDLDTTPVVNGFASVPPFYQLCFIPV
# TEST_DESCRIPTION: Cytochrome panel assay with activity outcomes. Panel member name: p450-cyp2c19 Compounds with AC50 equal or less than 10 uM are considered active
# Format: functional
# ASSAY_CONTEXT: read-out: AC50

{"columns": ["MOLECULE", "TARGET_OF_ASSAY", "AC50"],
 "data": [
  ["N#CCCn1c(=O)c(CCc2ccccc2)nc2cnc(OCc3ccccc3)nc21", "Cytochrome P450 2C19 (Homo sapiens, UniProt P33261)", "39.8 µM (inconclusive)"],
  ["CC1(C)c2ssc(=S)c2-c2ccccc2N1C(=O)CSC1=NCCS1", "Cytochrome P450 2C19 (Homo sapiens, UniProt P33261)", "0.891 µM (inconclusive)"],
  ["CCNC(=O)CC1C(=O)N(c2ccc(F)cc2)C(=O)N1CCc1ccc(OC)cc1 (stereo not drawn)", "Cytochrome P450 2C19 (Homo sapiens, UniProt P33261)", "8.91 µM (inconclusive)"],
  ["COC1(OC)N=C(NC(=O)Nc2ccccc2)C2(C#N)C(c3ccccc3)C12C#N (stereo not drawn)", "Cytochrome P450 2C19 (Homo sapiens, UniProt P33261)", "5.01 µM (inconclusive)"],
  ["CCOc1cc(/C=N/NC(=O)CN2CCCCC2)ccc1OCc1ccccc1", "Cytochrome P450 2C19 (Homo sapiens, UniProt P33261)", "25.1 µM (inconclusive)"],
  ["CSc1nc2ccc3nc(NC(=O)c4cccs4)sc3c2s1", "Cytochrome P450 2C19 (Homo sapiens, UniProt P33261)", "2.82 µM (inconclusive)"],
  ["Cc1ccc(SC(C)C(=O)NCc2cccnc2)cc1 (stereo not drawn)", "Cytochrome P450 2C19 (Homo sapiens, UniProt P33261)", "7.08 µM (inconclusive)"],
  ["CC(=O)c1c(N2CCC(C(N)=O)CC2)nc(=S)n(-c2ccccc2)c1C", "Cytochrome P450 2C19 (Homo sapiens, UniProt P33261)", "31.6 µM (inconclusive)"],
  ["N#C/C(=N\\O)c1nc(-c2ccccc2)cs1", "Cytochrome P450 2C19 (Homo sapiens, UniProt P33261)", "39.8 µM (inconclusive)"],
  ["CCOC(=O)N1CCN(C(=O)c2oc3ccc(S(=O)(=O)N4CCCCC4)cc3c2C)CC1", "Cytochrome P450 2C19 (Homo sapiens, UniProt P33261)", "28.2 µM (inconclusive)"],
  ["COc1cc(CC(=O)OC2CCOC2=O)cc(OC)c1OC (stereo not drawn)", "Cytochrome P450 2C19 (Homo sapiens, UniProt P33261)", "8.91 µM (inconclusive)"],
  ["COc1ccc(-c2nc(CSCC(=O)NCC3CCCO3)c(C)o2)cc1OC (stereo not drawn)", "Cytochrome P450 2C19 (Homo sapiens, UniProt P33261)", "31.6 µM (inconclusive)"],
  ["N[C@]1(C(=O)O)CCc2cc(P(=O)(O)O)ccc21", "Cytochrome P450 2C19 (Homo sapiens, UniProt P33261)", "15.8 µM (inconclusive)"],
  ["COc1ccc(-c2cc(C(=O)NCc3cccnc3)no2)cc1OC", "Cytochrome P450 2C19 (Homo sapiens, UniProt P33261)", "28.2 µM (inconclusive)"],
  ["O=C(Oc1ccc(OC(=O)c2ccco2)c(S(=O)(=O)c2ccc(Br)cc2)c1)c1ccco1", "Cytochrome P450 2C19 (Homo sapiens, UniProt P33261)", "1.41 µM (inconclusive)"],
  ["O=C(O)CCCCCNC(=O)c1ccncc1", "Cytochrome P450 2C19 (Homo sapiens, UniProt P33261)", "39.8 µM (inconclusive)"],
  ["CN1C2CCC1/C(=C\\c1ccccc1)C(=O)/C2=C\\c1ccccc1", "Cytochrome P450 2C19 (Homo sapiens, UniProt P33261)", "10 µM (inconclusive)"],
  ["CN(C)c1ccc(NC(=O)c2cccc(N3C(=O)C4C5C=CC(C5)C4C3=O)c2)cc1 (stereo not drawn)", "Cytochrome P450 2C19 (Homo sapiens, UniProt P33261)", "25.1 µM (inconclusive)"]
]}

###

# TARGET_OF_ASSAY: Ubiquitin-conjugating enzyme E2 N (Homo sapiens);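 further: Dose-response confirmation in a TR-FRET assay detecting UBC13-driven polyubiquitin chain formation, inhibition measured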
# Sequence (P61088 whole entry): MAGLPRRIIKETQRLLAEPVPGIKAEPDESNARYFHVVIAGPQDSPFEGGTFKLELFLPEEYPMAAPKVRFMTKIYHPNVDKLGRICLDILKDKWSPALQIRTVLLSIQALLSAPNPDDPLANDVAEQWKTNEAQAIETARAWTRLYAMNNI
# Assay type: functional
Activity calls are given as the source filed them.
Outcomes: active, inactive

{"columns": ["COMPOUND", "GROUP_LABEL"],
 "data": [
  ["Cc1onc(-c2ccccc2)c1C(=O)Nc1cccc2nsnc12", "active"],
  ["O=C(CCCCCn1c(=O)[nH]c2ccccc2c1=O)NCCc1c[nH]c2ccccc12", "active"],
  ["CCOc1ccc(NC(=O)CCCOc2cc(=O)n(C)c3ccccc23)cc1", "inactive"],
  ["CCCCCc1cc(=O)oc2c(C(CCN3CCCCC3)c3cc(OC)c(OC)c(OC)c3)c(OC)cc(OC)c12 (stereo not given)", "inactive"],
  ["CN(C)CCCN(C(=O)c1ccc(S(=O)(=O)N2CCc3ccccc3C2)cc1)c1nc2ccc(F)cc2s1", "inactive"],
  ["Cc1ccc(NC(=O)C[S+]([O-])CC(=O)NCCCc2ccccc2)cc1Cl (stereo not given)", "inactive"],
  ["CCOC(=O)CSc1nc2ccccc2c(=O)n1NC(=O)c1ccccc1", "inactive"],
  ["NS(=O)(=O)c1ccc(CCNC(=O)c2cc(-c3ccco3)nc3ccccc23)cc1", "inactive"],
  ["CC(C)C[C@@H]1CN=C(N)N1C[C@@H]1CCCN1C[C@H](C)N1C[C@@H](Cc2ccccc2)N(CCCC2CCCC2)C1=N", "inactive"],
  ["CC[C@@H](C)[C@@H]1CN([C@@H](CN2CCC[C@H]2CN2C(N)=NC[C@H]2CC(C)C)C(C)C)C(=N)N1CCCC1CCCC1", "inactive"]
]}
